Target: TNKS2 ARC4 (Homo sapiens, UniProt Q9H2K2)
Construct: GST (cleaved yes); made in house; host or cells: E. coli C41(DE3)
Test: Direct fluorescence polarization, TNKS2 ARC4
Format: binding
Details: TAMRA-labeled peptides; n.d. = not detectable; read-out: Kd TNKS2 ARC4 (Direct FP)
Would you mind telling me the reported Kd of each entry?
Your answer should be a plain number; it is taken to be in nM.

Form field: reported Kd of CC(C)C[C@H](NC(=O)c1cc2cc(c1)-c1cn(nn1)CC[C@H](NC(=O)[C@H](CCC(=O)O)NC(=O)[C@H](CCCNC(=N)N)NC(=O)CCCCCNC(=O)c1ccc3c(c1)C(=O)OC31c3ccc(N(C)C)cc3Oc3cc(N(C)C)ccc31)C(=O)NCC(=O)N[C@@H](CC(=O)O)C(=O)NCC(=O)N[C@H](C(=O)N[C@@H](CCC(=O)O)C(N)=O)CCn1cc-2nn1)C(=O)N[C@@H](CS)C(=O)N[C@@H](CC(C)C)C(=O)N[C@@H](CCCNC(=N)N)C(N)=O
730

Form field: reported Kd of CN(C)c1ccc2c(c1)Oc1cc(N(C)C)ccc1C21OC(=O)c2cc(C(=O)NCCCCCC(=O)N[C@@H](CCCNC(=N)N)C(=O)N[C@@H](CCC(=O)O)C(=O)N[C@H]3CCn4cc(nn4)-c4cc(C(=O)O)cc(c4)-c4cn(nn4)CC[C@@H](C(=O)N[C@@H](CCC(=O)O)C(N)=O)NC(=O)CNC(=O)[C@H](CC(=O)O)NC(=O)CNC3=O)ccc21
440

Form field: reported Kd of CN(C)c1ccc2c(c1)Oc1cc(N(C)C)ccc1C21OC(=O)c2cc(C(=O)NCCCCCC(=O)N[C@@H](CCCNC(=N)N)C(=O)N[C@@H](CCC(=O)O)C(=O)N[C@H]3CCn4cc(nn4)CCCCc4cn(nn4)CC[C@@H](C(=O)N[C@@H](CCC(=O)O)C(N)=O)NC(=O)CNC(=O)[C@H](CC(=O)O)NC(=O)CNC3=O)ccc21
800

Source listed as paper PMC5358875.
